assay: Cytotoxicity against human THP-1 cells assessed as cellular proliferation inhibition measured after 48 hrs by MTT assay; assay type: toxicity, cell-based
What IC50 at 48 h was measured for each of the following?

COC(=O)c1ccc(Cn2c(SCC3CCCCC3)nc3ccncc32)cc1    > 100 µM
COCCCNC(=O)c1ccc(Cn2c(SCc3ccccn3)nc3ccncc32)cc1    > 100 µM
COc1ccc(N2CCN(CCCNC(=O)c3nnc(Cc4ccc(F)cc4)o3)CC2)cc1    > 100 µM

Below are some molecules; for each one, tell me its IC50 at 48 h.
1. CC(C)(C)c1ccc(Cn2c(SCC3CCCCC3)nc3ccncc32)cc1
2. CCCCCNC(=O)c1ccc(Cn2c(SCC3CCCCC3)nc3ccncc32)cc1
3. COCCCNC(=O)c1ccc(Cn2c(SCc3ccc(C#N)cc3)nc3ccncc32)cc1
4. CC(C)OCCCn1c(=O)c2ccccc2n2c(CCC(=O)NCc3ccccc3)nnc12

Result:
1: 93.5 µM; 2: 87.5 µM; 3: > 100 µM; 4: 65.5 µM
